# target: CDK9/cyclin T1 (Homo sapiens, UniProt P50750)
# Sequence (O60563 whole entry): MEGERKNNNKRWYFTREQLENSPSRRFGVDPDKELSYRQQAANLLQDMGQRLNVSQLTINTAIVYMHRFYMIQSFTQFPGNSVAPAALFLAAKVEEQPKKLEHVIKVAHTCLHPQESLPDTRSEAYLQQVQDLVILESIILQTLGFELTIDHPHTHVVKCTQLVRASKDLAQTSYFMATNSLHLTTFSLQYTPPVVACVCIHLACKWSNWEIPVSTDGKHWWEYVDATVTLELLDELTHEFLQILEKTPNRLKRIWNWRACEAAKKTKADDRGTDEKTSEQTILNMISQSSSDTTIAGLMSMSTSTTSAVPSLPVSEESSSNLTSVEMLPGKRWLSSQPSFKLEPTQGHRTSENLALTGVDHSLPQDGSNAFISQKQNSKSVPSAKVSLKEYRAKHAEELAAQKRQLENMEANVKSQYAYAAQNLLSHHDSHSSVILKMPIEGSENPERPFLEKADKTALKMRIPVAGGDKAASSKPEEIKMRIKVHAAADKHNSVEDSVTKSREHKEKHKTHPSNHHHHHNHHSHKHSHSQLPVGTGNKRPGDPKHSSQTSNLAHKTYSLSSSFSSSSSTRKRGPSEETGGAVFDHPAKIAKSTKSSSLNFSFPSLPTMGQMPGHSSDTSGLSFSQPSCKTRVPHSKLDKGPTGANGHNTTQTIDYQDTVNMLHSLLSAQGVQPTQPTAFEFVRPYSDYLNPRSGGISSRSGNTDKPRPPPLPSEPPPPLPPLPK
# Sequence (P50750 whole entry): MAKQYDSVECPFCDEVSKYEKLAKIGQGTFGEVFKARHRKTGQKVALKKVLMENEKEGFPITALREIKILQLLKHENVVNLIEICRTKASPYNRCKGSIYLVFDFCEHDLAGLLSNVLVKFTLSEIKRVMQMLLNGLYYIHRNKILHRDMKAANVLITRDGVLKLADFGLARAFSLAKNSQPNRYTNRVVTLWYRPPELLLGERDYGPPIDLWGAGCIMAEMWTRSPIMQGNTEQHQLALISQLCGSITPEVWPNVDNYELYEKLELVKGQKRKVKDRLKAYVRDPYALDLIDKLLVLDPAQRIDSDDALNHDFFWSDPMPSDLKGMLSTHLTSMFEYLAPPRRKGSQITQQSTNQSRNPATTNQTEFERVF
# experimental-details: Inhibition of His-tagged human CDK9/CycT1 incubated for 90 mins by TR-FRET assay
measured-metric: IC50 (nM)

1. CC(C)(C)c1cnc(CSc2cnc(NC(=O)C3CCN(CC(=O)NCCOCCOCCOCCNc4cccc5c4C(=O)N(C4CCC(=O)NC4=O)C5=O)CC3)s2)o1 (stereo unspecified) = 5.6

* * *

# target: Calcium/calmodulin-dependent protein kinase kinase 2 (Homo sapiens)
# Sequence (Q96RR4 whole entry): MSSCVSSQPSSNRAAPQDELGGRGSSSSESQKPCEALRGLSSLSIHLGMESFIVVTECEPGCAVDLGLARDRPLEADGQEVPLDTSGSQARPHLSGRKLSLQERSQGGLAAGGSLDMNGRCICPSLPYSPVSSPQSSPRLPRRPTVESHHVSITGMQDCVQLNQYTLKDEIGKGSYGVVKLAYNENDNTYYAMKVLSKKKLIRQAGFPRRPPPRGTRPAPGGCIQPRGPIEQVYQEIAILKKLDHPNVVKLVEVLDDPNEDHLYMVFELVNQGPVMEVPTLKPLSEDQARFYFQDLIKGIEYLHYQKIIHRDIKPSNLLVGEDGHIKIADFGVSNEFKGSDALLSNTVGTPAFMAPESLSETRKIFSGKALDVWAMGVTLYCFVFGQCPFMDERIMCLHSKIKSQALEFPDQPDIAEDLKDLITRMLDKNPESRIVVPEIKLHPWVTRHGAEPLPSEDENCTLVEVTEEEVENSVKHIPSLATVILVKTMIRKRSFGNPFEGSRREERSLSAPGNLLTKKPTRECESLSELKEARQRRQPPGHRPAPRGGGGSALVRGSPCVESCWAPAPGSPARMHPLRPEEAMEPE
# experimental-details: Inhibition of GST-tagged human CAMKK2 incubated for 90 mins by TR-FRET assay
measured-metric: Ki

1) CN1CC[C@H](c2c(O)cc(O)c3c(=O)cc(-c4ccccc4Cl)oc23)[C@H](O)C1 [ALVOCIDIB] = 239 nM
